Target: Nuclear receptor subfamily 1 group I member 3 (Homo sapiens)
Experiment: qHTS assay to identify small molecule agonists of the constitutive androstane receptor (CAR) signaling pathway (AID 1224839);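 further: HepG2 cells stably carrying human CAR and a CYP2B6 luciferase reporter; nearly all actives have a fitted effect of over 15% in size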
Details: HepG2 hCAR CYP2B6-luciferase, agonist mode, 24 h; series mostly up to 92.4 µM
Records with an inconclusive call do not appear. Calls of active or inactive are those of the source. The call rests on the fitted dose curve; in most records, active means well fitted activation curve with a large enough effect in the repeat runs; inconclusive means weak or mixed curves; inactive means no such curve, though single readings can be large or run the other way.
Outcome field: choose from active, inactive

Problem: Could you check what this test reported for `ClCC(Cl)Cl` ?
Solution: inactive

Problem: Could you check what this test reported for `Nc1n[nH]c(N)n1` ?
Solution: inactive

Problem: Could you check what this test reported for `CCCCN(CCCCO)N=O` ?
Solution: inactive

Problem: Could you check what this test reported for `O=C(CCCN1CCC(n2c(=O)[nH]c3ccccc32)CC1)c1ccc(F)cc1` ?
Solution: inactive

Problem: Could you check what this test reported for `Cc1cnc[nH]1` ?
Solution: inactive

Problem: Could you check what this test reported for `CCCSC(=O)Cl` ?
Solution: inactive
